Would you mind telling me the reported Log10LC50 of each entry?
test system: SF-295; assay: NCI 60 human tumor cell line screen (SRB); type: cell-based; conditions: SF-295 (CNS Cancer); 48 h
The answer should be a number; do not append a unit.

Entry "Cc1ncc(C(=O)N[C@@H](COC(F)F)C(=O)N[C@@H](COC(F)F)C(=O)N[C@@H](Cc2ccccc2)C(=O)[C@@]2(C)CO2)s1" ; Log10LC50 = −4.88

Entry "C[C@]1(C(=O)[C@H](Cc2ccccc2)NC(=O)[C@H](COC(F)F)NC(=O)[C@H](COC(F)F)NC(=O)CN2CCOCC2)CO1" ; Log10LC50 = −6.49

Entry "C[C@]1(C(=O)[C@H](Cc2ccccc2)NC(=O)[C@H](Cc2ccccc2)NC(=O)[C@H](COC(F)F)NC(=O)CN2CCOCC2)CO1" ; Log10LC50 = −5.94

Entry "CC(C)C[C@H](NC(=O)[C@H](Cc1ccccc1)NC(=O)[C@H](COC(F)F)NC(=O)CN1CCOCC1)C(=O)[C@@]1(C)CO1" ; Log10LC50 = −6.49
